Listing: R3 EC50 of selected binders
Target: T1, PACAP-R3 (human, UniProt P41587 24-438)
T1 sequence (looked up): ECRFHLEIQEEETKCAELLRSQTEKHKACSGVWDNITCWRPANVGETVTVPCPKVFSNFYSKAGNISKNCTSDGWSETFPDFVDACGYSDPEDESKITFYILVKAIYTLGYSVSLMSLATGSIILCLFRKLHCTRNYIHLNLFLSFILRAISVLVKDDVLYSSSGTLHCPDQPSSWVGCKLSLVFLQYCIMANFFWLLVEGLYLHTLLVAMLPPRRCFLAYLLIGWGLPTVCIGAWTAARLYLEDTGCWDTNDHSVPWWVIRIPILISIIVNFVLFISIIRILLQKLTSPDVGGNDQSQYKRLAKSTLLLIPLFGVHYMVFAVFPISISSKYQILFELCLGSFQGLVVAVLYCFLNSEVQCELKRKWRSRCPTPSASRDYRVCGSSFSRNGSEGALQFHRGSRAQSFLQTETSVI
Assay: cell-based or functional assay
Give just the number in nM; leave the unit off.

Example results:
| binder | R3 EC50 / nM |
| --- | --- |
| HSDAVFTDNYTRLRKQMAAKKYLNSIKNER [R3P137] | 0.3 |
| HSDAVFTDNYTRLRKQMAAKKYLNSIKNKN [R3P164] | 0.3 |
| HSDAVFTDNYTRLRKQLAAKKYLNSIKNGGT [R3P30] | 0.4 |
| HSDGIFTDSYSRYRKQLAAKKYLADVKKGGT [R3P37] | 4 |
| HSDAVFTENYTKLRKQLAAKKYLNDLKKGGT [R3P3] | 0.75 |
| HSDAVFTDQYTRLRKQMAAKKYLNSIKNKRY [R3P71] | 0.09 |
| HSDAVFTDNYTRLRKQMAAKKYLNSITNKR [R3P130] | 1 |
| Ac-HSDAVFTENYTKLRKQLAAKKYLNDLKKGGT-NH2 [R3P1] | 2 |

Enquiry: Would you kindly share the measured R3 EC50 for HSDAVFTDNYTRLRKQMAAKKYLNSIKNIR [R3P141] ?
Return: 0.2

Enquiry: Reported R3 EC50 for HSDAVFTDNYTRLRKQMAAKKYLNSIKKGGT [R3P26] : what is it?
Return: 0.55

Enquiry: Quick one: R3 EC50 of HSDGIFTESYSRYRKQMAVKKYLAALKKKRYKQRVKNK [R3P6] ?
Return: 80

Enquiry: So what's the measured R3 EC50 for this one? HSDGIFTDSYSRYRKQMAVKKYLAAVKK [R3P40]
Return: 0.7
